Provenance of the data: patent US8933039B2

# System: CD1 mice
# protocol-summary: Intestinotrophic activity assessment: small bowel weight in mice
# Assay type: in vivo
# test-parameters: CD1 mice, 2.5 μg peptide s.c. b.i.d. in PBS, sacrificed 10 or 14 days, relative to vehicle only
No end group written: not given here.
Provide the reported % Increase in small bowel weight of each item.
Give bare numbers, in %.

Some substances with recorded % Increase in small bowel weight:
                                  substance  system_name  val
0  H-YADGSFSDEMNTILDNLATRDFINWLIQTKITD-OH [[Tyr1]ratGLP-2(1-33)]     CD1 mice   37
1  H-HGDGSFSDEMATILDNLAARDFINWLIQTKITD-OH [[Gly2,Ala11]hGLP-2(1-33)]     CD1 mice   42
2  H-HGDGSFSDEMNTALDNLAARDFINWLIQTKITD-OH [[Gly2,Ala13]hGLP-2(1-33)]     CD1 mice   18

The record that follows has no % Increase in small bowel weight shown yet.
**Query** Any idea what its % Increase in small bowel weight is? The substance is HVDGSFSDEMNTILDNLATRDFINWLIQTKITD [[Val2]GLP-2(1-33)]
**Result** 65

----------
# system-name: DPP-IV (Homo sapiens)
# Sequence (P27487 whole entry): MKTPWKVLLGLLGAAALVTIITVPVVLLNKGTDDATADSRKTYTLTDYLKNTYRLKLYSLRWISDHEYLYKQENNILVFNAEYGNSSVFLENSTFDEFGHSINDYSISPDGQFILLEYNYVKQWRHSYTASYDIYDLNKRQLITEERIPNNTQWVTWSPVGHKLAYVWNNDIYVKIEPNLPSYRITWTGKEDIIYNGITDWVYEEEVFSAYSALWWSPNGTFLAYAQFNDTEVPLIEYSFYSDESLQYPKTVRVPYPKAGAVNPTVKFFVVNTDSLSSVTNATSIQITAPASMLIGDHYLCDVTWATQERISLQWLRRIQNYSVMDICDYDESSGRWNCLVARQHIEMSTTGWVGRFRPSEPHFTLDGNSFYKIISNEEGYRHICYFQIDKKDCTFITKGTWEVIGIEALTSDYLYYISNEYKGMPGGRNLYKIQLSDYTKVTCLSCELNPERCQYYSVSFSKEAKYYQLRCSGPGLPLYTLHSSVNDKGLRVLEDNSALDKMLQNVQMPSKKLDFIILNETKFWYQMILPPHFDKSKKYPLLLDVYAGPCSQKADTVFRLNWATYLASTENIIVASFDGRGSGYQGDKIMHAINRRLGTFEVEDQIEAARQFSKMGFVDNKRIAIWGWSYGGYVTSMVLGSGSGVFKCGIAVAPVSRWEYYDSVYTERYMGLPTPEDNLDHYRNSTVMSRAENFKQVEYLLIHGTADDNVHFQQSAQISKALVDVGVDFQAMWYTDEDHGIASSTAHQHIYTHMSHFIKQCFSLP
# protocol-summary: Assay for resistance to dipeptidyl peptidase IV (RP-HPLC of cleavage product)
# test-parameters: human, isolated human placental DPP-IV (dipeptidyl peptidase IV), pH 7.4, % Cleaved by DPP-IV, as Example 3: human placental DPP-IV, 37° C., PBS pH 7.4
No end group written: not given here.
Exercise: state measured metabolised at 24 h, 0.19 mg/ml for each of the substances provided.
Numbers only, in %.

In [3]: df
Out[3]:
                                  substance                     assay_metric  val
0  H-HIDGSFSDEMNTILDNLAARDFINWLIQTKITD-OH [[Ile2]hGLP-2(1-33)]  metabolised at 24 h, 0.19 mg/ml    0
1  H-HKDGSFSDEMNTILDNLAARDFINWLIQTKITD-OH [[Lys2]hGLP-2(1-33)]  metabolised at 24 h, 0.19 mg/ml    0
2  RRADGSFSDEMNTILDNLATRDFINWLIQTKITD [[Arg-2,Arg-1]ratGLP-2(2-33)]  metabolised at 24 h, 0.19 mg/ml    0
3  H-HSDGSFSDEMNTILDNLAARDFINWLIQTKITD-OH [[Ser2]hGLP-2(1-33)]  metabolised at 24 h, 0.19 mg/ml    0
4  H-HADGSFSDEMNTILDNLAARDFINYLIQTKITD-OH [[Tyr25]hGLP-2(1-33)]  metabolised at 24 h, 0.19 mg/ml   48

Consider the record given below.
**Query** Please provide the recorded metabolised at 24 h, 0.19 mg/ml for H-PADGSFSDEMNTILDNLAARDFINWLIQTKITD-OH [[Pro1]hGLP-2(1-33)] , tested on DPP-IV (Homo sapiens).
**Result** 0

----------
What % Increase in small bowel weight was measured for each of the following?
# System: CD1 mice
# protocol-summary: Intestinotrophic activity assessment: small bowel weight in mice
# Assay type: in vivo
# test-parameters: CD1 mice, 2.5 μg peptide s.c. b.i.d. in PBS, sacrificed 10 or 14 days, relative to vehicle only
Please answer using the number first and the unit second.

// each substance listed below needs its % Increase in small bowel weight
1. H-HGDGSFSDEMNTILDNLAAADFINWLIQTKITD-OH [[Gly2,Ala20]hGLP-2(1-33)]
2. H-AGDGSFSDEMNTILDNLAARDFINWLIQTKITD-OH [[Ala1,Gly2]hGLP-2(1-33)]
3. H-HGDGSFSDEMNTILDNAAARDFINWLIQTKITD-OH [[Gly2,Ala17]hGLP-2(1-33)]
4. H-HADGSFSDYSKYLDNLAARDFINWLIQTKITD-OH

**Result**
["46%", "23%", "36%", "41%"]

# return % Increase in small bowel weight for each item in the list
1. H-HGDGSFSDEANTILDNLAARDFINWLIQTKITD-OH [[Gly2,Ala10]hGLP-2(1-33)]
2. H-HADGSFSDEMNTILDNLAARDFVQWLIQTKITD-OH [[Val23,Gln24]hGLP-2(1-33)]

**Result**
1. 33%
2. 36%
